Where do the numbers come from? From patent US20260055126A1.

experiment: Mouse plasma pharmacokinetic test; type: in vivo, CD-1 mice; conditions: CD-1, mouse, plasma; VT103 in mice, per oral (PO) 7 mg/kg; read-out: Cmax
QUANTITY KIND: Cmax (ng/mL)
Please give a number only; it is taken to be in ng/mL.

May I ask what Cmax has been recorded for CNS(=O)(=O)c1ccc(Nc2ccc(C(F)(F)F)cc2)c(-c2cn(C)cn2)c1 [VT103, reference compound] ?
896

* * *

biological target: recombinant TEAD3 protein (218-435, Uniprot ID: Q99594) (Homo sapiens (Human)); test: Thermal shift assay (protein melting point curve), TEAD3; type: binding; conditions: 10 μM TEAD protein, 50 μM test compound
Sequence (Q99594 218-435): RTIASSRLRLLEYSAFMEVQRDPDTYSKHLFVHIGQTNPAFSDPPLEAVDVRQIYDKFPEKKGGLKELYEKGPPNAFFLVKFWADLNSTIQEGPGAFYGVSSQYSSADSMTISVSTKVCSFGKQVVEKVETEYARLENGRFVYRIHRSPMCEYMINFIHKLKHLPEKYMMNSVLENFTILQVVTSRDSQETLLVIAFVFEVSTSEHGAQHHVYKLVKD
QUANTITY KIND: Δ T m (TEAD3)

>  <MOLECULE>
COCc1cccn(-c2cc(P(C)(C)=O)ccc2NCc2ccc(C(F)(F)F)cc2)c1=O [Compound 59]

>  <TARGET OR TEST SYSTEM>
recombinant TEAD3 protein (218-435, Uniprot ID: Q99594) (Homo sapiens (Human))

>  <Δ T m (TEAD3)>
+

$$$$
>  <MOLECULE>
CP(C)(=O)c1ccc(Nc2ccc(C(F)(F)F)cc2)c(-c2nccc(N3CC[C@H](O)C3)n2)c1 [Compound 9]

>  <TARGET OR TEST SYSTEM>
recombinant TEAD3 protein (218-435, Uniprot ID: Q99594) (Homo sapiens (Human))

>  <Δ T m (TEAD3)>
+

$$$$
>  <MOLECULE>
O=P1(c2ccc(Nc3ccc(C(F)(F)F)cc3)c(-c3nccc(OC4COC4)n3)c2)CCNCC1 [Compound 60]

>  <TARGET OR TEST SYSTEM>
recombinant TEAD3 protein (218-435, Uniprot ID: Q99594) (Homo sapiens (Human))

>  <Δ T m (TEAD3)>
+

$$$$
>  <MOLECULE>
CP(C)(=O)c1ccc(Nc2ccc(C(F)(F)F)cc2)c(-c2cn(C3COC3)cn2)c1 [Compound 70]

>  <TARGET OR TEST SYSTEM>
recombinant TEAD3 protein (218-435, Uniprot ID: Q99594) (Homo sapiens (Human))

>  <Δ T m (TEAD3)>
+

$$$$

Lab request: please report Δ T m (TEAD3) under test system recombinant TEAD3 protein (218-435, Uniprot ID: Q99594) (Homo sapiens (Human)) for O=P1(c2ccc(Nc3ccc(C(F)(F)F)cc3)c(-c3ncccn3)c2)CC(CO)C1 (stereo not drawn) [Compound 21]
+++

Proceed to CP(C)(=O)c1ccc(Nc2ccc(C(F)(F)F)cc2)c(-c2nnn(Cc3ccccn3)n2)c1 [Compound 3]
+
